- Test system: Bacillus subtilis
- test: cleaved RNA product abundance (RNA/gDNA barcode ratio) relative to median wild-type variant (ratio to wild type); higher = more accumulation of the downstream cleavage product
- experimental-conditions: experiment (reporter, strain, medium): exp 4a: truncated aprE reporter, strain BJT201 with 2% xylose (RNase J1 expressed); cleavage site: cggR-gapA (positions -7 to +36 mutated)
# cleaved RNA product abundance values compiled below

{"seq-text": "ACAGACGAAGGAGCCGCAAAGAAGTTATTAAGGGATGAATAATCACTCAATATAATTATCTCTCACTTATTTAAA", "cleaved RNA product abundance": 0.0768}
{"seq-text": "ACAGACGAAGGAGCCGCAAAGAATTTATTTAGGAATGAATAATCCCTCAATATAAATATCTCTCACTTATTTAAA", "cleaved RNA product abundance": 0.0547}
{"seq-text": "ACAGACGAAGGAGCCGCAAAGAAGTTATCTAGGGATGAATAATCCCTCAATATAAATATCTCTCACTTATTTAAA", "cleaved RNA product abundance": 0.316}
{"seq-text": "ACAGACGAAGGAGCCGCAAATAAGTTATTAAGGGATGAATAATCCCACAATATAAATAACTCTCACTTATTTAAA", "cleaved RNA product abundance": 0.22}

----------
- Tested on: Bacillus subtilis
- test: cleaved RNA product abundance (RNA/gDNA barcode ratio) relative to median wild-type variant (ratio to wild type); higher = more accumulation of the downstream cleavage product
- experimental-conditions: experiment (reporter, strain, medium): exp 2b: truncated aprE reporter, strain BJT200; cleavage site: cggR-gapA (positions -7 to +36 mutated)

{"seq-text": "ACAGACGAAGGAGCCGCAAAGAAGTTATTAAGGGCTGAAAAATCCCTCAATATAAATATCTCTCACTTATTTAAA", "cleaved RNA product abundance": 0.212}
{"seq-text": "ACAGACGAAGGAGCCGCAAAGAAGTTATTAAGGGTTTAATAATCCCTCAATATAAATATCTCTCACTTATTTAAA", "cleaved RNA product abundance": 0.63}
{"seq-text": "ACAGACGAAGGAGCCGCAAAGAAGTTATTAAGGGATAAATAATCCCTTAATATAAATATCTCTCACTTATTTAAA", "cleaved RNA product abundance": 0.71}
{"seq-text": "ACAGACGAAGGAGCCGCAAAGATGTTATAAAGGGATGAATAATCCCTCAATATAAATATCTCTCACTTATTTAAA", "cleaved RNA product abundance": 0.259}
{"seq-text": "ACAGACGAAGGAGCCGCAAAGAAGTTATTAAGGGATAAATAATCCCTCAATATAAATGTCTCTCACTTATTTAAA", "cleaved RNA product abundance": 0.46}
{"seq-text": "ACAGACGAAGGAGCCGCAATGAAGTTATTAAGGGATGAATAATCACTCAATATAAATATCTCTCACTTATTTAAA", "cleaved RNA product abundance": 0.126}
{"seq-text": "ACAGACGAAGGAGCCGCAAAGAAGTTATTAAGGGATGAATAATACCTAAATATAAATATCTCTCACTTATTTAAA", "cleaved RNA product abundance": 0.12}

----------
A collection of sequences and their measured cleaved RNA product abundance
- Tested on: Bacillus subtilis
- test: cleaved RNA product abundance (RNA/gDNA barcode ratio) relative to median wild-type variant (ratio to wild type); higher = more accumulation of the downstream cleavage product
- experimental-conditions: experiment (reporter, strain, medium): exp 4a: truncated aprE reporter, strain BJT201 with 2% xylose (RNase J1 expressed); cleavage site: cggR-gapA (positions -7 to +36 mutated)
assay-metric: cleaved RNA product abundance

{"seq-text": "ACAGACGAAGGAGCCGCAAAGAAGTTATTAAGGAATGAATAATCCCTCAATATAAATATCTCTCACTTATTTAAA", "assay-metric": "cleaved RNA product abundance", "measured-result": 0.132}
{"seq-text": "ACAGACGAAGGAGCCGCAAAGAAGATATTAAGGGATTAATAATCCCTCAATATAAATATCTCTCACTTATTTAAA", "assay-metric": "cleaved RNA product abundance", "measured-result": 0.608}
{"seq-text": "ACAGACGAAGGAGCCGCAAATAAGTTGTTAAGGGATGAATAATCCCTCAATATAAATATCTCTCACTTATTTAAA", "assay-metric": "cleaved RNA product abundance", "measured-result": 0.458}
{"seq-text": "ACAGACGAAGGAGCCGCAAAGAAGTTATTAAGAGATGATTAATCCCTCAATATAAATATCTCTCACTTATTTAAA", "assay-metric": "cleaved RNA product abundance", "measured-result": 0.173}
{"seq-text": "ACAGACGAAGGAGCCGCAAAGAAGTTATTAAAGGATGAATAATCCCTCACTATAAATATCTCTCACTTATTTAAA", "assay-metric": "cleaved RNA product abundance", "measured-result": 0.152}
{"seq-text": "ACAGACGAAGGAGCCGCAAAGAAGTTATTAAAGGATGAATAATCCCTCAATATAAATATTTCTCACTTATTTAAA", "assay-metric": "cleaved RNA product abundance", "measured-result": 0.247}
{"seq-text": "ACAGACGAAGGAGCCGCAAAGAAGTTATTAAGGGATGAATAATCCATCAATATATATATCTCTCACTTATTTAAA", "assay-metric": "cleaved RNA product abundance", "measured-result": 0.191}

----------
- Tested on: Bacillus subtilis
- test: cleaved RNA product abundance (RNA/gDNA barcode ratio) relative to median wild-type variant (ratio to wild type); higher = more accumulation of the downstream cleavage product
- experimental-conditions: experiment (reporter, strain, medium): exp 2b: truncated aprE reporter, strain BJT200; cleavage site: cggR-gapA (positions -7 to +36 mutated)
assay-metric: cleaved RNA product abundance

{"seq-text": "ACAGACGAAGGAGCCGCAAAGAAGTTATTAAGGGATTAATAATCCCTAAATATAAATATCTCTCACTTATTTAAA", "assay-metric": "cleaved RNA product abundance", "measured-result": 0.535}
{"seq-text": "ACAGACGAAGGAGCCGCAAAGAAGTTATTAAGAGATGAATAATCCCACAATATAAATATCTCTCACTTATTTAAA", "assay-metric": "cleaved RNA product abundance", "measured-result": 0.0945}
{"seq-text": "ACAGACGAAGGAGCCGCAAAGAAGTTAAAAAGGGATGAATAATCCCTCAATATAAATATCTCTCACTTATTTAAA", "assay-metric": "cleaved RNA product abundance", "measured-result": 0.268}
{"seq-text": "ACAGACGAAGGAGCCGCAAAGAAGTTATTAAGGGATGAATAAGCCCTAAATATAAATATCTCTCACTTATTTAAA", "assay-metric": "cleaved RNA product abundance", "measured-result": 0.342}
{"seq-text": "ACAGACGAAGGAGCCGCAAAGAAGTTATTTAGTGATGAATAATCCCTCAATATAAATATCTCTCACTTATTTAAA", "assay-metric": "cleaved RNA product abundance", "measured-result": 0.0988}
{"seq-text": "ACAGACGAAGGAGCCGCAATGAAGTTATTAAGGGATTAATAATCCCTCAATATAAATATCTCTCACTTATTTAAA", "assay-metric": "cleaved RNA product abundance", "measured-result": 0.989}
{"seq-text": "ACAGACGAAGGAGCCGCAAAGAAGTTATTAATGGATGAATTATCCCTCAATATAAATATCTCTCACTTATTTAAA", "assay-metric": "cleaved RNA product abundance", "measured-result": 0.112}

----------
- System: Bacillus subtilis
- test: cleaved RNA product abundance (RNA/gDNA barcode ratio) relative to median wild-type variant (ratio to wild type); higher = more accumulation of the downstream cleavage product
- experimental-conditions: experiment (reporter, strain, medium): exp 4a: truncated aprE reporter, strain BJT201 with 2% xylose (RNase J1 expressed); cleavage site: cggR-gapA (positions -7 to +36 mutated)
Classify by measured cleaved RNA product abundance: 1.0 if it is equal to or exceeds 0.2, 0.0 if it is smaller.

{"seq-text": "ACAGACGAAGGAGCCGCAAATAAGTTATTAAGGGATGAATAATCCCTCAATATACATATCTCTCACTTATTTAAA", "class-label": 1.0}
{"seq-text": "ACAGACGAAGGAGCCGCAAAGAAGTTATTAAGAGATGAATAATCCCTCAATATAGATATCTCTCACTTATTTAAA", "class-label": 0.0}
{"seq-text": "ACAGACGAAGGAGCCGCAAAGAAGTTATTAAGTGATGAATAATCCCTCAATATAAATACCTCTCACTTATTTAAA", "class-label": 0.0}
{"seq-text": "ACAGACGAAGGAGCCGCAAAGAAGTTAATAGGGGATGAATAATCCCTCAATATAAATATCTCTCACTTATTTAAA", "class-label": 1.0}
{"seq-text": "ACAGACGAAGGAGCCGCAAGGAAGTTATAAAGGGATGAATAATCCCTCAATATAAATATCTCTCACTTATTTAAA", "class-label": 1.0}
{"seq-text": "ACAGACGAAGGAGCCGCAAAGAAGTTATTAAGAGATGAATTATCCCTCAATATAAATATCTCTCACTTATTTAAA", "class-label": 0.0}
{"seq-text": "ACAGACGAAGGAGCCGCAAAGAAGTGATAAAGGGATGAATAATCCCTCAATATAAATATCTCTCACTTATTTAAA", "class-label": 1.0}
{"seq-text": "ACAGACGAAGGAGCCGCACAGAAGTTATTAAAGGATGAATAATCCCTCAATATAAATATCTCTCACTTATTTAAA", "class-label": 0.0}
{"seq-text": "ACAGACGAAGGAGCCGCAAAGAAGTTATTAATGGATGAATCATCCCTCAATATAAATATCTCTCACTTATTTAAA", "class-label": 0.0}
{"seq-text": "ACAGACGAAGGAGCCGCAAAGAAGTTATTAAGGGATTAATAATCCCTCAATTTAAATATCTCTCACTTATTTAAA", "class-label": 0.0}
{"seq-text": "ACAGACGAAGGAGCCGCTAAGAAGTTATTAAGGGATGAATAATCCCTCAAGATAAATATCTCTCACTTATTTAAA", "class-label": 1.0}
{"seq-text": "ACAGACGAAGGAGCCGCAAAAAAGTTATTAAAGGATGAATAATCCCTCAATATAAATATCTCTCACTTATTTAAA", "class-label": 1.0}
{"seq-text": "ACAGACGAAGGAGCCGCAAAAAAGTTATTAAGGGATGAATACTCCCTCAATATAAATATCTCTCACTTATTTAAA", "class-label": 1.0}
{"seq-text": "ACAGACGAAGGAGCCGCAACGAAGTTATTAAGGGAAGAATAATCCCTCAATATAAATATCTCTCACTTATTTAAA", "class-label": 1.0}
{"seq-text": "ACAGACGAAGGAGCCGCAAAGACGTTATTAAGGGATGAATAATCCCTCAATATAAATATCTCTCACTTATTTAAA", "class-label": 1.0}
{"seq-text": "ACAGACGAAGGAGCCGCAAAGAAGTTATTAAGGGATCAATAATCTCTCAATATAAATATCTCTCACTTATTTAAA", "class-label": 1.0}
{"seq-text": "ACAGACGAAGGAGCCGCAAAGAAGTTTTTAAGGGATGAATAATCCCTCAATTTAAATATCTCTCACTTATTTAAA", "class-label": 0.0}
{"seq-text": "ACAGACGAAGGAGCCGCAAAGAAGTAATTAAGGGCTGAATAATCCCTCAATATAAATATCTCTCACTTATTTAAA", "class-label": 0.0}
{"seq-text": "ACAGACGAAGGAGCCGCAAAGAGGTTATTTAGGGATGAATAATCCCTCAATATAAATATCTCTCACTTATTTAAA", "class-label": 1.0}
{"seq-text": "ACAGACGAAGGAGCCGCAAAGAAGTTATTAAGGGATGAATAATCACTCAATATACATATCTCTCACTTATTTAAA", "class-label": 0.0}
{"seq-text": "ACAGACGAAGGAGCCGCAAAGACGTCATTAAGGGATGAATAATCCCTCAATATAAATATCTCTCACTTATTTAAA", "class-label": 1.0}
{"seq-text": "ACAGACGAAGGAGCCGCAAAGAAGATATTAAGGGATGAATAATCCCTCAATATAAAAATCTCTCACTTATTTAAA", "class-label": 1.0}
{"seq-text": "ACAGACGAAGGAGCCGCAAAGAAGTTATTAATGGATGAATAATCCCACAATATAAATATCTCTCACTTATTTAAA", "class-label": 0.0}
{"seq-text": "ACAGACGAAGGAGCCGCAAAGAAGTTATTAAGGGATGAATTATCCCTCAATATACATATCTCTCACTTATTTAAA", "class-label": 1.0}
{"seq-text": "ACAGACGAAGGAGCCGCAAAGAAGTTACTAAGGGATTAATAATCCCTCAATATAAATATCTCTCACTTATTTAAA", "class-label": 1.0}
{"seq-text": "ACAGACGAAGGAGCCGCAAAGAAGTAATTAAGGGATGAATAATCCCTCAATATAGATATCTCTCACTTATTTAAA", "class-label": 1.0}
{"seq-text": "ACAGACGAAGGAGCCGCAAAGAAGTTATGAAGGGATGAATTATCCCTCAATATAAATATCTCTCACTTATTTAAA", "class-label": 1.0}
{"seq-text": "ACAGACGAAGGAGCCGCAAATTAGTTATTAAGGGATGAATAATCCCTCAATATAAATATCTCTCACTTATTTAAA", "class-label": 1.0}
{"seq-text": "ACAGACGAAGGAGCCGCAAAGAAGTTATTTAGGGATGATTAATCCCTCAATATAAATATCTCTCACTTATTTAAA", "class-label": 1.0}
{"seq-text": "ACAGACGAAGGAGCCGCGAAGAAGTTTTTAAGGGATGAATAATCCCTCAATATAAATATCTCTCACTTATTTAAA", "class-label": 1.0}
